All values here come from the Deep4Chem optical property database.

# protocol: solvent given as SMILES
# conditionDetails: in C1CCOC1
The label True is reserved for absorption maximum strictly under 400 nm; False covers values equal to or above it.

Sample answers from the record:
F[B-]1(F)OC(c2ccccc2)=C(c2ccccc2)c2sc3ccccc3[n+]21 :: True
F[B-]1(F)n2c(c3cccc4cccc2c43)=Nc2cccc[n+]21 :: False
COc1cc2c(cc1C=C(C#N)C#N)c1ccccc1n2C :: False
CC(=O)c1c2c(cc3ccc(N(C)C)cc13)CCC2 :: True
c1ccc(-c2cc(-c3ccc(-c4nc(-c5ccccn5)c(-c5ccccn5)[nH]4)cc3)cc(-c3ccccn3)n2)nc1 :: True

Query block: Please indicate whether the reported absorption maximum of CCC1(CC)c2cc(B(c3c(C)cc(C)cc3C)c3c(C)cc(C)cc3C)ccc2-c2c1c1c(c3c2C(CC)(CC)c2cc(N(c4ccccc4)c4ccccc4)ccc2-3)C(CC)(CC)c2cc(B(c3c(C)cc(C)cc3C)c3c(C)cc(C)cc3C)ccc2-1 is strictly below 400 nm.
Result block: True

Query block: Please indicate whether the reported absorption maximum of C#CC1CN2CCC1CC2[C@@H](O)c1ccnc2ccc(OC)cc12 (stereo partly drawn) is strictly below 400 nm.
Result block: True

Query block: Please indicate whether the reported absorption maximum of CN(C)c1ccc(C2=[N+]3C(=Nc4c(-c5ccc(O)cc5)cc(-c5ccc(N(C)C)cc5)n4[B-]3(F)F)C(c3ccc(O)cc3)=C2)cc1 is strictly below 400 nm.
Result block: False

Query block: Please indicate whether the reported absorption maximum of Cc1ccc(-c2ccc3ccc4cc(C(C)(C)C)cc5ccc2c3c45)cc1 is strictly below 400 nm.
Result block: True

----------
# protocol: solvent given as SMILES
# conditionDetails: in Cc1ccccc1
Threshold check on absorption maximum: at or above 400 nm gives True, strictly below gives False.

Sample answers from the record:
N#Cc1c(-n2c3ccc(I)cc3c3cc(I)ccc32)c(-n2c3ccc(I)cc3c3cc(I)ccc32)c(C#N)c(-n2c3ccc(I)cc3c3cc(I)ccc32)c1-n1c2ccc(I)cc2c2cc(I)ccc21 :: False
CN(C)c1ccc(-c2ccc(-c3cc(N4CCCCC4)c(C#N)c4c3-c3ccccc3CC4)cc2)cc1 :: False

Query block: Textbook exercise: given the entry CC(C)(C)c1ccc2c(c1)c1cc(C(C)(C)C)cc3c1n2-c1cc(-c2ccccc2F)cc2c1B3c1cc(C(C)(C)C)cc3c4cc(C(C)(C)C)ccc4n-2c13 , state whether its absorption maximum is greater than or equal to 400 nm.
Result block: True

----------
# protocol: solvent given as SMILES
# conditionDetails: in ClC(Cl)Cl
measure: absorption maximum (nm)
Please respond with the number in nm and leave the unit unwritten.

Solved entries (count: 4):
CCCCC1=Cc2c3ccc4cccc5ccc(c6cc(-c7ccccc7)n(c26)P1(=O)c1ccccc1)c3c45 (stereo not given) :: 431
Cc1cc(C)c(B(c2c(C)cc(C)cc2C)c2cc3cc(N(C)C)c4ccccc4c3c3c2ccc2ccccc23)c(C)c1 :: 431
CCCCCCCCCCCCOc1cc2c(cc1OCCCCCCCCCCCC)C1=C3C(=O)N4C=Cc5cc(OCCCCCCCCCCCC)c(OCCCCCCCCCCCC)cc5C4=C3C(=O)N1C=C2 :: 590
CN(C)/C=N\c1ccc2c3c(cccc13)C(=O)c1ccccc1-2 :: 464

Then there is this compound:
Query block: Name the reported absorption maximum value associated with the compound Cc1cc(C)c(B(c2c(C)cc(C)cc2C)c2cc3ccc4ccccc4c3c3c2ccc2ccccc23)c(C)c1
Result block: 413

----------
# protocol: solvent given as SMILES
# conditionDetails: in C1CCOC1
measure: absorption maximum (nm)
Please respond with the number in nm and leave the unit unwritten.

Solved entries (count: 3):
COc1ccc(-c2cc3oc(=O)cc(C)c3cc2-c2ccc(OC)c(OC)c2)cc1OC :: 346
CCOC(=O)c1ccccc1-c1c2ccc(=O)cc-2oc2cc(OC(=O)[C@H](CSCc3ccc(C)cc3)NC(=O)OC(C)(C)C)ccc12 :: 431
CCCCCCc1ccc(-n2c3[n+](c4c5ccccc5c5ccccc5c42)[B-](C)(C)c2cc(N(c4ccccc4)c4ccccc4)ccc2-3)cc1 :: 393

Then there is this molecule:
Query block: Name the reported absorption maximum value associated with the molecule CCCCCCCCCCCCCCCCOC(=O)c1ccc(N(c2ccccc2)c2ccccc2)cc1
Result block: 334

----------
# protocol: solvent given as SMILES
# conditionDetails: in ClC(Cl)Cl
Threshold check on absorption maximum: at or above 600 nm gives MET, strictly below gives NOT MET.

Sample answers from the record:
CC1=c2cc3c(C)c4n(c3cc2=[N+]2C1=Cc1c3ccccc3c(C)n1[B-]2(F)F)[B-](F)(F)[N+]1=C(C)c2ccccc2C1=C4 :: MET
CN(C)CCN(Cc1c2ccccc2c(CN(CCN(C)C)c2ccc([N+](=O)[O-])cc2[N+](=O)[O-])c2ccccc12)c1ccc([N+](=O)[O-])cc1[N+](=O)[O-] :: NOT MET
Oc1ccccc1/N=C/c1ccccc1Oc1ccccc1 :: NOT MET
F[B-]1(F)n2c(cc3sc4ccccc4c32)C(c2ccc(I)cc2)=C2C=c3sc4ccccc4c3=[N+]21 :: MET
CC[n+]1c(C=C2C(=O)C(C=C3N(C)c4ccccc4C3(C)C)=C2[O-])[se]c2ccccc21 :: MET
CN1C(=O)c2cccc3c(-n4c5ccccc5c5ccccc54)ccc(c23)C1=O :: NOT MET
CCCCCCCCCCCCCCCC[n+]1ccc(/C=C/c2ccccc2O)cc1 :: NOT MET

Query block: Textbook exercise: given the entry CN(C)c1ccc(/C=C/c2ccc(-c3nc(C#N)c(C#N)n3C)cc2)cc1 , state whether its absorption maximum is greater than or equal to 600 nm.
Result block: NOT MET

----------
# protocol: solvent given as SMILES
# conditionDetails: in ClCCl
measure: absorption maximum (nm)
Please respond with the number in nm and leave the unit unwritten.

Solved entries (count: 2):
CC1=CC(C)=[N+]2C1=C(c1ccc3cccnc3n1)c1c(C)cc(C)n1[B-]2(F)F :: 506
C(=C\c1ccncn1)/c1ccc(N(c2ccccc2)c2ccc(/C=C/c3ccncn3)cc2)cc1 :: 422

Then there is this molecule:
Query block: Name the reported absorption maximum value associated with the molecule CCCCN(CCCC)c1ccc2c(c1)C#CC#Cc1cc(C(F)(F)F)ccc1C#Cc1cc(c3cc1C#Cc1ccc(N(CCCC)CCCC)cc1C#CC#Cc1cc(C(F)(F)F)ccc1C#C3)C#C2
Result block: 477

----------
# protocol: solvent given as SMILES
# conditionDetails: in C1COCCO1
Recorded absorption maximum by entry
Please respond with the number in nm and leave the unit unwritten.

Solved entries (count: 4):
O=C1c2ccccc2-c2ccc(N3CCN(c4ccccc4)CC3)c3cccc1c23 :: 436.2
COC(=O)c1ccc2c3ccc(C(=O)OC)c4c(C(=O)OC)ccc(c5ccc(C(=O)OC)c1c25)c43 :: 470
CN(C)c1ccc(/C=C/c2nc3cc(Br)ccc3nc2-c2ccccc2)cc1 :: 445
Cc1nc2ccc(/C=C/c3ccc(N(C)C)cc3)cc2nc1-c1ccccc1 :: 403

Then there is this compound:
Query block: Name the reported absorption maximum value associated with the compound CCCCCCCCCCCCCCCC[n+]1ccc(/C=C/c2ccccc2O)cc1
Result block: 558.2

----------
Recorded absorption maximum by entry
# protocol: solvent given as SMILES
# conditionDetails: in CCCCOCCCC
Please respond with the number in nm and leave the unit unwritten.

Query block: Name the reported absorption maximum value associated with the molecule CCCCCCCCCCn1cc(C2=C(c3cn(CCCCCCCCCC)c4ccccc34)C(=O)N(C)C2=O)c2ccccc21
Result block: 469

----------
# protocol: solvent given as SMILES
# conditionDetails: in CC#N
Threshold check on absorption maximum: at or above 400 nm gives true (1), strictly below gives false (0).

Sample answers from the record:
O=P1(c2ccccc2)c2ccccc2-c2sc3ccccc3c21 (stereo not given) :: false (0)
CN(C)CCCN1c2ccccc2CCc2ccccc21 :: false (0)
N#Cc1nn(-c2c(Cl)cccc2Cl)nc1N1CCCC1 :: false (0)
N#C/C(=C\c1ccc(C#N)cc1)c1nc(-c2ccc(Cl)cc2)c(-c2ccccc2)s1 :: false (0)

Query block: Textbook exercise: given the entry Cc1ccc(-c2nc3c([nH]2)C2=CC(=O)S[C@]2(C)[C@@]2(C)SC(=O)C=C32)cc1 , state whether its absorption maximum is greater than or equal to 400 nm.
Result block: true (1)

Query block: Textbook exercise: given the entry Nc1ccc2c(-c3ccccc3C(=O)[O-])c3ccc(=[NH2+])cc-3oc2c1 , state whether its absorption maximum is greater than or equal to 400 nm.
Result block: true (1)

Query block: Textbook exercise: given the entry CC1=CC(/C=C/c2ccc(N(C)C)cc2)=[N+]2C1=C(c1ccc(I)cc1)c1c(C)cc(/C=C/c3ccc(N(C)C)cc3)n1[B-]2(F)F , state whether its absorption maximum is greater than or equal to 400 nm.
Result block: true (1)

Query block: Textbook exercise: given the entry CC(C)CCCCN1CCc2c1ccc1c3c(ccc21)C(=O)CCC3 , state whether its absorption maximum is greater than or equal to 400 nm.
Result block: false (0)

Query block: Textbook exercise: given the entry CCCCCCCCN1c2ccc(C#Cc3cc(C(F)(F)F)cc(C(F)(F)F)c3)cc2Sc2cc(C=O)ccc21 , state whether its absorption maximum is greater than or equal to 400 nm.
Result block: false (0)
